Target Entity: 5-hydroxytryptamine receptor 5A (Homo sapiens, UniProt P47898)
Sequence (P47898 whole entry): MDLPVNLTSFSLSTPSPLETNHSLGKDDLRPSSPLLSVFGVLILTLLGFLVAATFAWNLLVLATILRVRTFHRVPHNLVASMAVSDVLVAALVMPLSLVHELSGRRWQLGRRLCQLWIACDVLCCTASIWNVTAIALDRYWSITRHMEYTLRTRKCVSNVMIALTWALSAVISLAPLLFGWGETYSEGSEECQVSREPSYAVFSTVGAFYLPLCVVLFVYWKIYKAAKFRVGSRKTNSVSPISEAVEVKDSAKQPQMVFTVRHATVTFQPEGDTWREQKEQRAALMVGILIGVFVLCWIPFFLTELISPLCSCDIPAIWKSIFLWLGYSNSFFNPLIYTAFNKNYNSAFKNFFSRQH
Method Summary: Displacement of [3H]-5-CT from human 5-HT5A receptor incubated for 2 hr by radioligand binding assay
pKi: −log10 of the molar value.
Observable: pKi

- CN(C)S(=O)(=O)CCNCc1ccc(F)c2cccnc12: 6.57

[A] CN(C)S(=O)(=O)CCNCc1cccc2cccnc12
[B] CN(C)S(=O)(=O)C1(CNCc2ccc(Cl)c3cccnc23)CC1
# input Returns: the label, A or B , whose recorded pKi is the lower number. Pick one; state its label.
# output A

====

Target Entity: 5-hydroxytryptamine receptor 5A (Homo sapiens)
Method Summary: Agonist activity at human 5-HT5A receptor transfected in HTLA cells assessed as increase in beta-arrestin 2 recruitment at 10 uM incubated for 18 to 20 hrs by bright-Glo reagent based Tango assay
Observable: EC50 (µM)

[a] CS(=O)(=O)C1(CNCc2cccc3cccnc23)CC1
[b] CS(=O)(=O)C1(CNCc2ccc(Cl)c3cccnc23)CC1
# input Which of these two has the smaller recorded EC50: a or b ? Lab note: record the label of whichever item you select.
# output a

====

Target Entity: 5-hydroxytryptamine receptor 5A (Homo sapiens, UniProt P47898)
Method Summary: Displacement of [3H]-5-CT from human 5-HT5A receptor at 32 uM incubated for 2 hr by radioligand binding assay
Observable: Ki (µM)

Known results for compounds:
• Clc1ccc(CNCC[C@@H]2CCOC2)c2ncccc12 = 6.7
• CN1CC[C@H](CNCc2ccc(Cl)c3cccnc23)CC1=O = 4

[a] O=C1C[C@H](CNCc2ccc(Cl)c3cccnc23)CN1C1CC1
[b] O=S1(=O)CCC[C@@H](CNCc2ccc(Cl)c3cccnc23)C1
[c] Clc1ccc(CNC[C@H]2CCn3ccnc3C2)c2ncccc12
# input Rank descending by Ki. Answer by naming the labels in the order asked.
# output a, b, c
(a: 6.7 µM, b: 3.1 µM, c: 1.5 µM)

====

Target Entity: 5-hydroxytryptamine receptor 2B (Homo sapiens, UniProt P41595)
Sequence (P41595 whole entry): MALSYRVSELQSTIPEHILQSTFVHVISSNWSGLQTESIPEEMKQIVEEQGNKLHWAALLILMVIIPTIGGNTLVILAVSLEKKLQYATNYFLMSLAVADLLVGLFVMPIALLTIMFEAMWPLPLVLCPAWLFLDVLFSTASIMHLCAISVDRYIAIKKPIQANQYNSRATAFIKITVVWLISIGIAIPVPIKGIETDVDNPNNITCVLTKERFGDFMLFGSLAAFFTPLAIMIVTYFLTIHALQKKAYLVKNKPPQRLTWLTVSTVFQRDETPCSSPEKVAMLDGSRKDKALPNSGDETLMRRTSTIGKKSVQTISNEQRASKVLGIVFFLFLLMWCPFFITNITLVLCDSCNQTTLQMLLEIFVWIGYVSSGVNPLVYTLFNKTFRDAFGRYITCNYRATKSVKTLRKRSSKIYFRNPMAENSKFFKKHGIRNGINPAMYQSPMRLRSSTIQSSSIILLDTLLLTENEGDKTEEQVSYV
pKi: −log10 of the molar value.
Observable: pKi

# input Consider the molecule shown here: CN(C)CCN(Cc1ccc(-c2ccc(CNCCc3ccccc3)cc2)cc1)C(=O)CCC1CCCC1 What is its recorded pKi?
# output > 5.70

====

Target Entity: 5-hydroxytryptamine receptor 5A (Homo sapiens)
Method Summary: Displacement of [3H]-5-CT from human 5-HT5A receptor at 100 uM incubated for 2 hr by radioligand binding assay
Observable: Ki (µM)

* O=C(CCCNCc1ccc(Cl)c2cccnc12)NC1CC1 | 11.5
* N#CC1(c2ccccc2)CCC(NCCc2nnc3ccccn23)CC1 (stereo not given) | 28.8
* CC(C)(C)c1ccc2c(c1)CN(C[C@@H](O)COC1CCOCC1)CC2 | 21.4

[A] Cc1cnn(C[C@H](C)NCc2cccc(OCc3ccccn3)c2)c1
[B] Cc1cnc(NCc2ccccc2-n2ccnc2)nc1N(C)C
# input Rank A against B by their Ki values and give the higher one. Provide the label of your selected option as the answer.
# output A
(A: 20.9 µM, B: 12.9 µM)
